# Read-out: X-box binding protein 1 (XBP1), XBP1 (gene 7494)
# assay.explanation: LTEA_HepaRG_XBP1: Life Technologies and Expression Analysis (LTEA) Assay for X-box binding protein 1 (XBP1) using HepaRG (AID 2283540)
# condition.parameters: mRNA level, 48 h; actives raise or lower the signal
Active and inactive are the calls of the source. The calls were made as follows: active = hit-call score of the fitted dose curve at least 0.9, where 1 is the maximum; inactive = score below 0.9.
Permitted responses: 1.0 = active, 0.0 = inactive

Solved cases below.
CC1(C(=O)Nc2ccc(O)c(Cl)c2Cl)CCCCC1 | 0.0
CCOP(=S)(OCC)Oc1ccc([N+](=O)[O-])cc1 | 0.0
CC(C)N(C(=O)SCC(Cl)=C(Cl)Cl)C(C)C | 0.0
O=c1ccc(=O)[nH][nH]1 | 0.0
CC[C@H](C)[C@H]1O[C@]2(C=C[C@@H]1C)C[C@@H]1C[C@@H](C/C=C(\C)[C@@H](O[C@H]3C[C@H](OC)[C@@H](O[C@H]4C[C@H](OC)[C@@H](NC)[C@H](C)O4)[C@H](C)O3)[C@@H](C)/C=C/C=C3\CO[C@@H]4[C@H](O)C(C)=C[C@@H](C(=O)O1)[C@]34O)O2 | 1.0

input: Fill in: this test's call for O=C(O)c1cc(Oc2ccc(C(F)(F)F)cc2Cl)ccc1[N+](=O)[O-] is ___
output: 0.0
